Target Entity: PDE9A (Homo sapiens, UniProt O76083)
Construct: pET-PDE9A2 plasmid (catalytic domain, 181–506); made in house; host or cells: E. coli BL21 (Codonplus)
Sequence (O76083 241-566): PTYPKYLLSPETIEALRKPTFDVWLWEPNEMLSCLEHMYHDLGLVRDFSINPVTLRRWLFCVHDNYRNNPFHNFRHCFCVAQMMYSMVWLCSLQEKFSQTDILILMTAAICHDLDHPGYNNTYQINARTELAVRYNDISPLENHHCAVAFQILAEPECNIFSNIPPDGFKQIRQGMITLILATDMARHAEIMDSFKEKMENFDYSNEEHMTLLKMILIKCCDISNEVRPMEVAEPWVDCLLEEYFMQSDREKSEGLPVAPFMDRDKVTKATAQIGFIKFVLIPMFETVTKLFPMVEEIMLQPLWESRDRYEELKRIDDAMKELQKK
Assay Explanation: Enzymatic assay against PDE9A (3H-cGMP substrate)
Type: biochemical
Run Parameters: Table 1 and text; means of three independent determinations; read-out: IC50±SD
# strict inequality: IC50 < 60 nM yields rule met, everything else yields rule not met

[Q] Criterion: IC50 strictly below 60 nM. Is it met by C[C@@H](NC(=O)/C=C/c1ccc(O)c(O)c1)c1nc2c(cnn2C2CCCC2)c(=O)[nH]1 [Compound 1b] ?
[A] rule not met

[Q] Next entry: C[C@@H](NC(=O)/C=C/c1cccc(O)c1)c1nc2c(cnn2C2CCCC2)c(=O)[nH]1 [Compound 1h]
[A] rule met

[Q] Now try Cc1c(C)c2c(c(C)c1O)CCC(C)(C(=O)N[C@H](C)c1nc3c(cnn3C3CCCC3)c(=O)[nH]1)O2 (stereo partly drawn) [Compound 3] .
[A] rule not met

[Q] What about this molecule? COc1cc(/C=C/C(=O)N[C@H](C)c2nc3c(cnn3C3CCCC3)c(=O)[nH]2)ccc1O [Compound 1a]
[A] rule not met

[Q] Same for COc1ccc(/C=C/C(=O)N[C@H](C)c2nc3c(cnn3C3CCCC3)c(=O)[nH]2)cc1OC [Compound 1c]
[A] rule not met

[Q] Also need C[C@@H](NC(=O)/C=C/c1ccc(C(F)(F)F)cc1)c1nc2c(cnn2C2CCCC2)c(=O)[nH]1 [Compound 1k] , thanks.
[A] rule not met

[Q] One more molecule: C[C@@H](NC(=O)/C=C/c1ccc(N(C)C)cc1)c1nc2c(cnn2C2CCCC2)c(=O)[nH]1 [Compound 1i]
[A] rule not met

[Q] Same read-out for COc1cccc(/C=C/C(=O)N[C@H](C)c2nc3c(cnn3C3CCCC3)c(=O)[nH]2)c1 [Compound 1f] ?
[A] rule not met

[Q] Could you do the same for C[C@@H](NC(=O)/C=C/c1ccc(O)cc1)c1nc2c(cnn2C2CCCC2)c(=O)[nH]1 [Compound 1g] , please?
[A] rule not met

[Q] And the next one, C[C@@H](NC(=O)Cc1ccc(O)c(O)c1)c1nc2c(cnn2C2CCCC2)c(=O)[nH]1 [Compound 1l] ?
[A] rule met

[Q] COc1ccc(/C=C/C(=O)N[C@H](C)c2nc3c(cnn3C3CCCC3)c(=O)[nH]2)cc1O [Compound 1d] ?
[A] rule not met

[Q] Same question, C[C@@H](NC(=O)/C=C/c1cccc(Cl)c1)c1nc2c(cnn2C2CCCC2)c(=O)[nH]1 [Compound 1j] this time
[A] rule not met

---

Assay Explanation: In vitro cell viability assay (MTT)
Type: cell-based, human
Run Parameters: human, SH-SY5Y cells, 40 μM, 48 h incubation, read-out: cellular viability
Measured Parameter: viability at 48 h, 40 µM

[Q] Consider the compound shown here: C[C@@H](NC(=O)/C=C/c1cccc(O)c1)c1nc2c(cnn2C2CCCC2)c(=O)[nH]1 What is its recorded viability at 48 h, 40 µM?
[A] ~90%

---

Target Entity: PDE9A (Homo sapiens, UniProt O76083)
Construct: pET-PDE9A2 plasmid (catalytic domain, 181–506); made in house; host or cells: E. coli BL21 (Codonplus)
Assay Explanation: Enzymatic assay against PDE9A (3H-cGMP substrate)
Assay type: biochemical
Run Parameters: Table 2; read-out: IC50 (nM) of PDE9A
Measured Parameter: IC50 (nM)
Return type: number; implicit unit nM.

[Q] Requested read-out IC50, target or system PDE9A (Homo sapiens, UniProt O76083), entry C[C@@H](NC(=O)/C=C/c1cccc(O)c1)c1nc2c(cnn2C2CCCC2)c(=O)[nH]1 [Compound 1h]
[A] 56
